Data provenance: ChEMBL document CHEMBL3616400

# inhibition listing for each entry below
Biological target: Keap1/Nrf2 (Homo sapiens) (UniProt Q16236+Q14145)
Sequence (Q14145 whole entry, looked up, the tested form may be a part): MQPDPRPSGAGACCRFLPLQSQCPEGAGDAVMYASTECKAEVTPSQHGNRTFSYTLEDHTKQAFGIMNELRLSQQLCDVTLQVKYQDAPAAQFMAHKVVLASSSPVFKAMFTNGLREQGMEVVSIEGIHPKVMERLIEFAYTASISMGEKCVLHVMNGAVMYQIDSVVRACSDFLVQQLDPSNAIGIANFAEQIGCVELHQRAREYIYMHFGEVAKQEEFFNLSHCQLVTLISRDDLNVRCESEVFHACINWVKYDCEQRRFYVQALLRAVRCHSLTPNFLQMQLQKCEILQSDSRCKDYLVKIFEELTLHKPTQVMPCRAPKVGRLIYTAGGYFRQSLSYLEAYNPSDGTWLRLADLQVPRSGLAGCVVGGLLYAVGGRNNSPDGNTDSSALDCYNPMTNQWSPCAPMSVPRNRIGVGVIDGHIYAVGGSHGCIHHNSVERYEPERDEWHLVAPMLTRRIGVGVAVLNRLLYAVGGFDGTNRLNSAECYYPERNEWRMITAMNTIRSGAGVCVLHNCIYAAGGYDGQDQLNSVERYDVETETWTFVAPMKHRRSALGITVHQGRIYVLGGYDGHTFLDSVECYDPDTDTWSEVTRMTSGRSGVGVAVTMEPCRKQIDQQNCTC
Sequence (Q16236 whole entry, looked up, the tested form may be a part): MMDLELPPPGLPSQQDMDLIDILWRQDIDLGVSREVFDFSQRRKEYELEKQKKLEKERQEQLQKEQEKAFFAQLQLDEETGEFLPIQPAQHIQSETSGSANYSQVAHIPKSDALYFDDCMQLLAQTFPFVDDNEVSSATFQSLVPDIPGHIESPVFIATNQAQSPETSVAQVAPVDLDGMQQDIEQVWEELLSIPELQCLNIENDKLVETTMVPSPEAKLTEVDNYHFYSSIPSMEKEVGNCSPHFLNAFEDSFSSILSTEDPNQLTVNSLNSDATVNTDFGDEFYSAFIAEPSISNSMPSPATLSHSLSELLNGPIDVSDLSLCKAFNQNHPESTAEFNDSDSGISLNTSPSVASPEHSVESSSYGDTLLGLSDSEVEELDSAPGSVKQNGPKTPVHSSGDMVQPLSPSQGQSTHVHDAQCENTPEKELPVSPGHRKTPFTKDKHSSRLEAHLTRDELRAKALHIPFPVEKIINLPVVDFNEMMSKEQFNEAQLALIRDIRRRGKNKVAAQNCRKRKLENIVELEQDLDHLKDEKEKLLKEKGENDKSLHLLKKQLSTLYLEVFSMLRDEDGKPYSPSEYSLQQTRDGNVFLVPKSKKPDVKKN
Assay: Inhibition of kelch domain of Keap1 (unknown origin) interaction to high affinity ETGE motif from Nrf2 unknown origin) at 100 uM by fluorescence polarization assay
Type: protein assay

MOLECULAR STRING | inhibition (%)
O=[N+]([O-])c1cccc(-c2cn(-c3cccc(I)c3)nn2)c1 | 67.2
N#Cc1cccc(-n2cc(-c3cccc([N+](=O)[O-])c3)nn2)c1 | 36.8
O=[N+]([O-])c1ccc(-n2cc(-c3cccc([N+](=O)[O-])c3)nn2)cc1 | 74.8
O=C(O)c1cccc(-c2cn(-c3ccc([N+](=O)[O-])cc3)nn2)c1 | 82.3
O=[N+]([O-])c1cccc(-c2cn(-c3cccc([N+](=O)[O-])c3)nn2)c1 | 81
O=C(O)c1ccc(-c2cn(-c3ccc(C(=O)O)cc3)nn2)cc1 | 77.3
NC(=O)c1ccc(-n2cc(-c3ccc([N+](=O)[O-])cc3)nn2)cc1 | 46.1
Clc1cccc(-n2cc(-c3cccc(-c4nnn[nH]4)c3)nn2)c1 | 40.7
CC(C)(C)c1cccc(-n2cc(-c3cccc([N+](=O)[O-])c3)nn2)c1 | 69.8
O=[N+]([O-])c1cccc(-c2cn(-c3cccc(F)c3)nn2)c1 | 42.6
